The measurements presented in this section are drawn from patent US10721967B2.

Assay: Single-ascending dose pharmacokinetic study: plasma THC after a 3 second inhalation from the vaporizer device
Type: in vivo, human
Conditions: human, plasma, inhaled, Group II, 15 ± 0.1 mg, single inhalation, mean ± SD
measure.name: Tmax

In [3]: df
Out[3]:
                                   compound  reported_value
0  CCCCCc1cc(O)c2c(c1)OC(C)(C)[C@@H]1CCC(C)=C[C@@H]21 [THC, tetrahydrocannabinol]        3.33 min

====

Test: Single-ascending dose pharmacokinetic study: plasma THC after a 3 second inhalation from the vaporizer device
Assay type: in vivo, human
Conditions: human, plasma, inhaled, 0.1 mg, Group IV, 25 ± 0.1 mg, single inhalation, mean ± SD
measure.name: Tmax (min)

>>> print(df.to_string())
                                   molecule  reported_value
0  CCCCCc1cc(O)c2c(c1)OC(C)(C)[C@@H]1CCC(C)=C[C@@H]21 [THC, tetrahydrocannabinol]               3
